- Test system: Ileum
- Test: Inhibition of electrically-induced contraction of guinea pig ileum longitudinal muscle with myentric plexus
- Type: functional, tissue-based
- Settings: Cavia porcellus
Endpoint: IC50 (nM)
Respond with the bare value in nM.

### Prompt Recall and state the measured IC50 for C[N+]1(C)CC[C@]23CCCC[C@H]2[C@H]1Cc1ccc(O)cc13.[I-] .
### Response 610
